TEST TARGET: Somatostatin receptor type 1 (Homo sapiens)
Sequence (P30872 whole entry): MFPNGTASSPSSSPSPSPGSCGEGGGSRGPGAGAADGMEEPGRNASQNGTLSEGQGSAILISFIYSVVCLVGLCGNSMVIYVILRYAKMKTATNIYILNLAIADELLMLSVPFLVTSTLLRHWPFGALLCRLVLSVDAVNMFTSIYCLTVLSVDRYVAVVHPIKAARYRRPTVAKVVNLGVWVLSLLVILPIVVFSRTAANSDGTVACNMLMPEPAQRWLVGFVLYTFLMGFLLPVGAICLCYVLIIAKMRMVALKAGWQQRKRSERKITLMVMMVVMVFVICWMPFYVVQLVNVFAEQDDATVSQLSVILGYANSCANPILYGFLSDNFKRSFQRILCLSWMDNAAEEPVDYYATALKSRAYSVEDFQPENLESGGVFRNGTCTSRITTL
Bridge positions count the residues as written; N and C are the ends. Square brackets hold non-standard residues; d marks the D form. Peptide text beside a SMILES is read from it. Phe(4-CH2NHiPr) = CC(C)NCc1ccc(C[C@H](N)C(=O)O)cc1
QUANTITY KIND: IC50

Use the examples below as a reference point.
COMPOUND: C[C@@H](O)[C@@H]1NC(=O)[C@H](Cc2ccccc2)NC(=O)[C@H]([C@@H](C)O)NC(=O)[C@H](Cc2ccc(Nc3nnc(N)[nH]3)cc2)NC(=O)[C@@H](Cc2c[nH]c3ccccc23)NC(=O)[C@H](Cc2ccccc2)NC(=O)[C@H](Cc2ccccc2)NC(=O)[C@H](CCCCN)NC(=O)[C@@H](N)CSSC[C@@H](C(=O)O)NC(=O)[C@H](CO)NC1=O
IC50: > 1000 nM
--
COMPOUND: CC(C)NCc1ccc(C[C@@H]2NC(=O)[C@@H](Cc3ccc4ccccc4c3)NC(=O)[C@H](Cc3ccccc3)NC(=O)[C@H](Cc3ccccc3)NC(=O)[C@H](CCCCN)NC(=O)[C@H](NC(=O)CCc3ccc(O)cc3)CSSC[C@H](C(=O)O)NC(=O)[C@H](CO)NC(=O)[C@H]([C@@H](C)O)NC(=O)[C@H](Cc3ccccc3)NC(=O)[C@H]([C@@H](C)O)NC2=O)cc1
IC50: > 1000 nM

Now look at this entry.
Challenge: Retrieve IC50 on Somatostatin receptor type 1 (Homo sapiens); query CC(C)NCc1ccc(C[C@@H]2NC(=O)[C@@H](Cc3c[nH]c4ccccc34)NC(=O)[C@H](Cc3ccccc3)NC(=O)[C@@H](NC(=O)[C@@H](N)Cc3ccc(O)cc3)CSSC[C@@H](C(=O)O)NC(=O)[C@H](Cc3ccccc3)NC(=O)[C@H]([C@@H](C)O)NC2=O)cc1 (H-YCF[dW][Phe(4-CH2NHiPr)]TFC-OH; disulfide 2-8)
Response given: > 1000 nM

###

TEST TARGET: UniProt:P32745
pIC50: −log10 of the molar value. Bridge positions count the residues as written; N and C are the ends. Square brackets hold non-standard residues; d marks the D form. Peptide text beside a SMILES is read from it. Phe(4-CH2NHiPr) = CC(C)NCc1ccc(C[C@H](N)C(=O)O)cc1
QUANTITY KIND: pIC50

// solved cases for pIC50 follow
COMPOUND: CCN=C(NCC)NCCCC[C@@H]1NC(=O)[C@@H](Cc2c[nH]c3ccccc23)NC(=O)[C@H](Cc2ccccc2)NC(=O)[C@H](Cc2ccccc2)NC(=O)[C@H](CCCCN)NC(=O)[C@@H](N)CSSC[C@@H](C(=O)O)NC(=O)[C@H](CO)NC(=O)[C@H]([C@@H](C)O)NC(=O)[C@H](Cc2ccccc2)NC(=O)[C@H]([C@@H](C)O)NC1=O
QUANTITY KIND: pIC50
OBSERVED RESULT: < 6.00

COMPOUND: CC(C)NCc1ccc(C[C@@H]2NC(=O)[C@@H](Cc3c[nH]c4ccccc34)NC(=O)[C@H](Cc3ccc(O)cc3)NC(=O)[C@H](Cc3ccccc3)NC(=O)[C@H](CCCCN)NC(=O)[C@@H](N)CSSC[C@@H](C(=O)O)NC(=O)[C@H](CO)NC(=O)[C@H]([C@@H](C)O)NC(=O)[C@H](Cc3ccccc3)NC(=O)[C@H]([C@@H](C)O)NC2=O)cc1
QUANTITY KIND: pIC50
OBSERVED RESULT: < 5.00

# evaluate next
Challenge: Specify pIC50 for CC(C)NCc1ccc(C[C@@H]2NC(=O)[C@@H](Cc3c[nH]c4ccccc34)NC(=O)[C@H](Cc3ccccc3)NC(=O)[C@H](Cc3ccccc3)NC(=O)[C@H](CCCCN)NC(=O)[C@@H](N)CSSC[C@@H](C(=O)O)NC(=O)[C@@H](CO)NC(=O)[C@H]([C@@H](C)O)NC(=O)[C@H](Cc3ccccc3)NC(=O)[C@H]([C@@H](C)O)NC2=O)cc1 (H-CKFF[dW][Phe(4-CH2NHiPr)]TFT[dS]C-OH; disulfide 1-11) and stop.
Response given: < 6.00

###

Parameter pIC50, tested on Somatostatin receptor type 3 (Homo sapiens, UniProt P32745), listed per item.
Sequence (P32745 whole entry): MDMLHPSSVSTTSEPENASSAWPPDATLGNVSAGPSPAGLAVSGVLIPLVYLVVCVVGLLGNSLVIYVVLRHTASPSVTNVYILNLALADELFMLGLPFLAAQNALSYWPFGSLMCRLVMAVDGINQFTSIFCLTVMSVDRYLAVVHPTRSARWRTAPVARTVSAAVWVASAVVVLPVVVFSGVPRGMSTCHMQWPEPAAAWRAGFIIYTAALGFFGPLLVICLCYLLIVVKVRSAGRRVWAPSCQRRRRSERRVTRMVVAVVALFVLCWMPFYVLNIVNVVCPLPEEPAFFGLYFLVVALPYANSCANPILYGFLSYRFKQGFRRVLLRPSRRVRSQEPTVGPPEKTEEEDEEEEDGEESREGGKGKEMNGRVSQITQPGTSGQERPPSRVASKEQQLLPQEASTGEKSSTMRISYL
pIC50: −log10 of the molar value. Bridge positions count the residues as written; N and C are the ends. Square brackets hold non-standard residues; d marks the D form. Peptide text beside a SMILES is read from it. Phe(4-CH2NHiPr) = CC(C)NCc1ccc(C[C@H](N)C(=O)O)cc1

Solved entries (count: 2):
MOLECULE: CC(C)NCc1ccc(C[C@@H]2NC(=O)[C@@H](Cc3ccc4ccccc4c3)NC(=O)[C@H](Cc3ccccc3)NC(=O)[C@H](Cc3ccccc3)NC(=O)[C@H](CCCCN)NC(=O)[C@@H](NC(=O)CCc3ccc(O)cc3)CSSC[C@@H](C(=O)O)NC(=O)[C@H](CO)NC(=O)[C@H]([C@@H](C)O)NC(=O)[C@H](Cc3ccccc3)NC(=O)[C@H]([C@@H](C)O)NC2=O)cc1
TEST TARGET: Somatostatin receptor type 3 (Homo sapiens, UniProt P32745)
QUANTITY KIND: pIC50
OBSERVED RESULT: < 6.00
--
MOLECULE: CC(C)CN(Cc1ccc(C[C@@H]2NC(=O)[C@@H](Cc3c[nH]c4ccccc34)NC(=O)[C@H](Cc3ccccc3)NC(=O)[C@H](Cc3ccccc3)NC(=O)[C@H](CCCCN)NC(=O)[C@@H](N)CSSC[C@@H](C(=O)O)NC(=O)[C@H](CO)NC(=O)[C@H]([C@@H](C)O)NC(=O)[C@H](Cc3ccccc3)NC(=O)[C@H]([C@@H](C)O)NC2=O)cc1)CC(C)C
TEST TARGET: Somatostatin receptor type 3 (Homo sapiens, UniProt P32745)
QUANTITY KIND: pIC50
OBSERVED RESULT: < 5.00

Next:
Challenge: Using the record for CC(C)NCc1ccc(C[C@@H]2NC(=O)[C@@H](Cc3c[nH]c4ccccc34)NC(=O)[C@H](Cc3ccccc3)NC(=O)[C@H](Cc3ccccc3)NC(=O)[C@H](CC(N)=O)NC(=O)[C@H](CCCCN)NC(=O)[C@@H](N)CSSC[C@@H](C(=O)O)NC(=O)[C@H](CO)NC(=O)[C@H]([C@@H](C)O)NC(=O)[C@H](Cc3ccccc3)NC(=O)[C@H]([C@@H](C)O)NC2=O)cc1 (H-CKNFF[dW][Phe(4-CH2NHiPr)]TFTSC-OH; disulfide 1-12) , state its measured pIC50.
Response given: < 5.00
